Kindly supply the reported protein stability index values for the records listed here.
B1: PKD2L1 (parent)
chain: TLARCAKDILGFAVMFFIVFFAYA

- Variants of: B1
- protocol.notes: protein stability index of a GFP-peptide fusion (GPS, HEK-293T) (PSI 1-6); higher = more stable;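 note: lentivirally expressed fusions sorted by FACS into six bins by GFP to DsRed ratio, PSI derived from sequencing read proportions per bin multiplied by bin number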
- assay.context: c terminus: a fixed tail appended
The response must contain the number and no unit.

Record G11I , field protein stability index: 2.79

Record F21K , field protein stability index: 2.1

Record Y23I , field protein stability index: 1.51
